Examples of molecules with documented growth follow.
- System: HOP-62 NSCLC
- Experiment description: NCI-60 one-dose screen, 48 h (100 = growth as untreated, 0 = no growth, -100 = all killed)
- Reported conditions: 10 µM unless noted
About 83,000 compounds went through this panel and 20% of them were active in at least one assay; those are over-represented in the sample as a whole.
Measured parameter: growth (%)

{"Molecule": "O=C(Nc1ccc(Cl)cc1)N1CCN(c2ccc3nncn3n2)CC1", "Subject of test": "HOP-62 NSCLC", "Recorded number": -11.4}
{"Molecule": "COc1ccc(Cn2cc(Cn3cc(C=C4C(=O)NC(=O)NC4=O)c4ccccc43)nn2)cc1", "Subject of test": "HOP-62 NSCLC", "Recorded number": 92.4}
{"Molecule": "Nc1n[nH]c2ccc([C@@H]3Nc4ccc5[nH]ncc5c4[C@H]4[C@H]5CCC(C5)[C@H]43)cc12", "Subject of test": "HOP-62 NSCLC", "Recorded number": 35.7}
{"Molecule": "OC(CNC1CCCCC1)Cn1c2ccc(I)cc2c2cc(I)ccc21 (stereo not given)", "Subject of test": "HOP-62 NSCLC", "Recorded number": 74.4}
{"Molecule": "COc1ccc(C2C3=C(COC3=O)N(CCO)c3cc4c(cc32)CCC4)cc1OC (stereo not given)", "Subject of test": "HOP-62 NSCLC", "Recorded number": 31.6}

* * *

- System: NCI-H522 lung
- Experiment description: NCI-60 one-dose screen, 48 h (100 = growth as untreated, 0 = no growth, -100 = all killed)
- Reported conditions: 10 µM unless noted
Compounds without any hit were thinned out: in the full panel of roughly 83,000, 20% have a hit.
Class key for growth values: lower level (below 30%), middle level (30% to below 70%), upper level (70% or more)

{"Compound": "Brc1ccc(Oc2ccc(Nc3ncnc4onc(-c5ccccc5)c34)cc2)cc1", "Assigned class": "upper level"}
{"Compound": "Nc1ccc(-c2nc3cc(Oc4ccc(Oc5ccc6[nH]c(-c7ccc(N)cc7)nc6c5)cc4)ccc3[nH]2)cc1", "Assigned class": "upper level"}
{"Compound": "CCCCOCc1cc(CN2CCN(C)CC2)c(O)c2ncccc12", "Assigned class": "lower level"}
{"Compound": "COc1cc(/C=C2\\CN(C)C/C(=C\\c3cc(CN4CCCCC4)c(O)c(OC)c3)C2=O)cc(CN2CCCCC2)c1O", "Assigned class": "middle level"}
{"Compound": "O=C(c1ccccc1)N(C(=S)NCCc1ccc(Cl)cc1)c1ccc(Cl)cc1", "Assigned class": "upper level"}
{"Compound": "Cn1cc(-c2ccc3ncc(-c4ccc(CC(=O)Nc5cc(C(C)(C)C)no5)cc4)nc3c2)cn1", "Assigned class": "middle level"}
{"Compound": "Cc1ccc(NCCNCC(O)CO)c2c(=O)c3ccccc3sc12 (centres undefined)", "Assigned class": "lower level"}
{"Compound": "COc1ccc(-c2cn[nH]c2-c2ccc(OC)c(O)c2)cc1", "Assigned class": "middle level"}
{"Compound": "CCOC(=O)c1sc(-c2ccc(OS(=O)(=O)c3ccccc3[N+](=O)[O-])c(C=O)c2)nc1C", "Assigned class": "lower level"}

* * *

- System: CAKI-1 renal
- Experiment description: NCI-60 one-dose screen, 48 h (100 = growth as untreated, 0 = no growth, -100 = all killed)
- Reported conditions: 10 µM unless noted
About 83,000 compounds went through this panel and 20% of them were active in at least one assay; those are over-represented in the sample as a whole.
Measured parameter: growth (%)

{"Compound": "CCCCN1CCN(c2ccc3nc(-c4ccc5nc(-c6ccc(OCC)cc6)[nH]c5c4)[nH]c3c2)CC1", "Subject of test": "CAKI-1 renal", "Recorded number": 51.2}
{"Compound": "CCOc1cccc(/C=N/NC(=O)C(=O)Nc2cccc(C(F)(F)F)c2)c1O", "Subject of test": "CAKI-1 renal", "Recorded number": 9.87}
{"Compound": "COc1cc(/C(C#N)=C/c2nc3c(N4CCOCC4)nc(Cl)nc3n2C)cc(OC)c1OC", "Subject of test": "CAKI-1 renal", "Recorded number": 6.49}
{"Compound": "Cc1ccc(C2CC(c3ccc(Nc4nc(NCCO)nc(Nc5ccc(Cl)cc5)n4)cc3)=NN2c2cc(Cl)cc(Cl)c2)cc1 (stereo not drawn)", "Subject of test": "CAKI-1 renal", "Recorded number": 73.5}
{"Compound": "CSc1nc2c(c(=O)n1C)N=C1c3ccccc3C(=O)C1C(c1ccccc1)N2 (stereo not drawn)", "Subject of test": "CAKI-1 renal", "Recorded number": 53.4}
{"Compound": "COc1ccc(/C=C/C(=O)c2c(C)nc3ccccc3c2/C=C/c2ccccc2)cc1O", "Subject of test": "CAKI-1 renal", "Recorded number": 52.6}
{"Compound": "COc1ccc(Cn2cc(Cn3c(=O)c(-c4nc5ccccc5[nH]4)cc4ccccc43)nn2)c(OC)c1OC", "Subject of test": "CAKI-1 renal", "Recorded number": 21.7}
{"Compound": "O=S1(=O)N(Cc2ccccc2)[C@@H](Cc2ccccc2)C2O[C@H]2[C@H](Cc2ccccc2)N1Cc1ccccc1 (stereo partly drawn)", "Subject of test": "CAKI-1 renal", "Recorded number": 33.8}
{"Compound": "O=C(Nc1ccc(Cl)cc1F)c1cc(I)ccc1O", "Subject of test": "CAKI-1 renal", "Recorded number": 22.8}
{"Compound": "COC(=O)/C(CCC=C(C)C)=C1\\[C@@H](OC(C)=O)C[C@@]2(C)[C@H]1C[C@@H](O)[C@H]1[C@@]3(C)CC[C@H](NC(=O)c4cnccn4)[C@@H](C)[C@@H]3CC[C@@]12C", "Subject of test": "CAKI-1 renal", "Recorded number": 92}
{"Compound": "CCn1c(SCC(=O)Nc2cc(C(F)(F)F)ccc2Cl)nc2ccccc2c1=O", "Subject of test": "CAKI-1 renal", "Recorded number": 48.4}
{"Compound": "Cc1sc2ncnc(Sc3nc4ccccc4[nH]3)c2c1C", "Subject of test": "CAKI-1 renal", "Recorded number": -68.6}
{"Compound": "Brc1ccc(Nc2nc3ccccc3nc2Nc2ccc(Br)cc2)cc1", "Subject of test": "CAKI-1 renal", "Recorded number": -16.3}
{"Compound": "CC/C=C\\C[C@H](O)C/C=C1/C(=O)C=C[C@@H]1C/C=C\\CCCC(=O)OCCS(=O)(=O)c1ccccc1", "Subject of test": "CAKI-1 renal", "Recorded number": 65.4}
{"Compound": "COc1c2ccoc2c(/C=C/C=O)c2oc(-c3ccccc3)cc(=O)c12", "Subject of test": "CAKI-1 renal", "Recorded number": 93.1}
{"Compound": "COC(=O)[C@H]1CCCN1C(=O)[C@H]1CCCN1C(=O)[C@H](Cc1c[nH]c2ccccc12)NC(=S)Nc1cc(C(F)(F)F)cc(C(F)(F)F)c1", "Subject of test": "CAKI-1 renal", "Recorded number": 38.6}
{"Compound": "O=C1OC(c2ccccc2)(c2ccccc2)c2ccsc21", "Subject of test": "CAKI-1 renal", "Recorded number": 101}
{"Compound": "COc1cc([C@@H]2NC(=O)NC(C)=C2C(=O)Nc2nc(-c3ccc(Cl)cc3)cs2)ccc1O", "Subject of test": "CAKI-1 renal", "Recorded number": 83}
